Reference source for all entries: patent US9409884B2

Target: AMPK
Experiment: AMPK activation, enzyme-linked immunosorbent assay
Assay type: biochemical
Details: Table 12, compounds of Table 5
pEC50: −log10 of the molar value.

{"COMPOUND": "COC(=O)c1ccc(CN2CCC(Oc3cccc(C(=O)NC4CCN(Cc5ccc(OC)cc5)CC4)c3)CC2)cc1 [Compound 5-112]", "pEC50": "5.00 to 6.00"}
{"COMPOUND": "N#Cc1ccc(CN2CCC(Oc3ccc(C(=O)NC4CCN(Cc5ccc(Cl)cc5)CC4)cc3F)CC2)cc1 [Compound 5-70]", "pEC50": "> 6.00"}
{"COMPOUND": "O=C(NC1CCN(Cc2ccccc2)CC1)c1cc(Cl)c(OC2CCN(Cc3ccc(F)c(F)c3)CC2)c(Cl)c1 [Compound 5-76]", "pEC50": "> 6.00"}
{"COMPOUND": "N#Cc1ccc(CN2CCC(Oc3ccc(C(=O)NC4CCNCC4)cc3)CC2)cc1 [Compound 5-79]", "pEC50": "< 4.00"}
{"COMPOUND": "O=C(NC1CCN(Cc2ccccc2)CC1)c1ccc(OC2CCN(C(=O)c3ccc(C(F)(F)F)cc3)CC2)c(Cl)c1 [Compound 5-18]", "pEC50": "> 6.00"}
{"COMPOUND": "CC(C)(C)OC(=O)NCCCNC(=O)c1ccc(OC2CCN(Cc3ccccc3)CC2)c(Cl)c1 [Compound 5-102]", "pEC50": "4.70 to 5.00"}
{"COMPOUND": "O=C(NC1CCN(Cc2ccccc2)CC1)c1cc(Cl)c(OC2CCN(Cc3cccc(C(F)(F)F)c3)CC2)c(Cl)c1 [Compound 5-62]", "pEC50": "> 6.00"}

* * *

Target: AMPK
Experiment: AMPK activation, enzyme-linked immunosorbent assay
Format: biochemical
Details: Table 8, compounds of Table 1

{"CHEMICAL STRUCTURE": "O=C(NC1CCN(Cc2ccc(N3CCOCC3)cc2)CC1)c1ccc(OC2CCN(c3ccc(C(F)(F)F)cc3)CC2)cn1", "EC50": "< 100 nM"}
{"CHEMICAL STRUCTURE": "O=C(NC1CCN(Cc2ccc(F)cc2)CC1)c1ccnc(OC2CCN(c3ccc(C(F)(F)F)cc3)CC2)c1", "EC50": "1000 to 5000 nM"}
{"CHEMICAL STRUCTURE": "O=C(N[C@@H]1CCN(Cc2cccnc2)C1)c1cc2cc(OC3CCN(c4ccc(C(F)(F)F)cc4)CC3)ccc2o1", "EC50": "100 to 500 nM"}
{"CHEMICAL STRUCTURE": "Cc1c(C(=O)NC2CCN(Cc3cccc(C#N)c3)CC2)oc2cc(OC3CCN(c4ccc(C(F)(F)F)cc4)CC3)ccc12", "EC50": "< 100 nM"}
{"CHEMICAL STRUCTURE": "CN(C(=O)c1cc2cc(OC3CCN(c4ccc(C(F)(F)F)cc4)CC3)ccc2o1)C1CCN(C(=O)OC(C)(C)C)CC1", "EC50": "1000 to 5000 nM"}
{"CHEMICAL STRUCTURE": "O=C(N[C@@H]1CCN(Cc2ccncc2)C1)c1ccc(OC2CCN(c3ccc(C(F)(F)F)cc3)CC2)cn1", "EC50": "100 to 500 nM"}
{"CHEMICAL STRUCTURE": "O=C(N[C@@H]1CCN(Cc2ccncc2)C1)c1cc2cc(OC3CCN(c4ccc(C(F)(F)F)cc4)CC3)ccc2o1", "EC50": "100 to 500 nM"}

* * *

Molecular target: AMPK
Experiment: AMPK activation, enzyme-linked immunosorbent assay
Type: biochemical
Details: Table 13, compounds of Table 6
pEC50: −log10 of the molar value.
PROPERTY: pEC50

{"CHEMICAL STRUCTURE": "CC(=O)c1ccc(Oc2ccc(NC(=O)c3cc4ccc(C(=O)N5CCN(Cc6ccc(S(C)(=O)=O)cc6)CC5)cc4o3)cn2)cc1", "ENDPOINT VALUE": "> 7.00"}
{"CHEMICAL STRUCTURE": "CS(=O)(=O)c1ccc(CN2CCN(C(=O)c3ccc4oc(C(=O)NC5CCN(Cc6ccc(C#N)cc6)CC5)cc4c3)CC2)cc1C(F)(F)F", "ENDPOINT VALUE": "> 7.00"}
{"CHEMICAL STRUCTURE": "N#Cc1ccc(CN2CCC(NC(=O)c3cc4cc(NC(=O)c5cnn(-c6ccc(F)cc6)c5)ccc4o3)CC2)cc1", "ENDPOINT VALUE": "6.00 to 7.00"}
{"CHEMICAL STRUCTURE": "N#Cc1ccc(CN2CCC(NC(=O)c3cc4cc(C(=O)NC5CCN(c6ccc(C#N)cc6)CC5)ccc4o3)CC2)cc1", "ENDPOINT VALUE": "> 7.00"}
{"CHEMICAL STRUCTURE": "N#Cc1ccc(Oc2ccc(NC(=O)c3cc4cc(C(=O)N5CCC(C(=O)c6ccc(F)cc6)CC5)ccc4o3)cn2)cc1", "ENDPOINT VALUE": "> 7.00"}
{"CHEMICAL STRUCTURE": "COc1ccc(CN2CCC(NC(=O)c3cc4cc(C(=O)N5CCC(Oc6ccc(S(=O)(=O)C(F)(F)F)cc6)CC5)ccc4o3)CC2)cc1F", "ENDPOINT VALUE": "> 7.00"}
{"CHEMICAL STRUCTURE": "N#Cc1ccc(CN2CCC(NC(=O)c3cc4cc(CN5CCN(Cc6ccc(F)cc6)CC5)ccc4o3)CC2)cc1", "ENDPOINT VALUE": "> 7.00"}
{"CHEMICAL STRUCTURE": "CS(=O)(=O)c1ccc(CN2CCN(C(=O)c3ccc4cc(C(=O)NC5CCN(Cc6ccc(C#N)cc6)CC5)oc4c3)CC2)cc1", "ENDPOINT VALUE": "6.00 to 7.00"}
{"CHEMICAL STRUCTURE": "COc1ccc(CN2CCC(NC(=O)c3cc4cc(C(=O)N5CCN(Cc6ccc(S(=O)(=O)N7CCOCC7)cc6)CC5)ccc4o3)CC2)cc1F", "ENDPOINT VALUE": "> 7.00"}
{"CHEMICAL STRUCTURE": "CS(=O)(=O)c1ccc(CN2CCN(C(=O)c3ccc4oc(C(=O)NC5CCN(Cc6ccc(-n7cccn7)cc6)CC5)cc4c3)CC2)cc1", "ENDPOINT VALUE": "> 7.00"}
{"CHEMICAL STRUCTURE": "N#Cc1ccc(CN2CCC(NC(=O)c3cc4cc(C(=O)N5CCN(Cc6cnn(-c7ccc(C#N)cc7)c6)CC5)ccc4o3)CC2)cc1", "ENDPOINT VALUE": "> 7.00"}
{"CHEMICAL STRUCTURE": "CS(=O)(=O)c1ccc(CN2CCN(c3ccc4oc(C(=O)NC5CCN(Cc6ccc(C#N)cc6)CC5)cc4c3)CC2)cc1", "ENDPOINT VALUE": "> 7.00"}
{"CHEMICAL STRUCTURE": "N#Cc1ccc(CN2CCC(NC(=O)c3cc4cc(NC(=O)C5CCN(Cc6ccc(C#N)cc6)CC5)ccc4o3)CC2)cc1", "ENDPOINT VALUE": "6.00 to 7.00"}
{"CHEMICAL STRUCTURE": "N#Cc1ccc(CN2CCC(NC(=O)c3cc4cc(C(=O)N5CCC(C(=O)c6ccc(F)cc6)CC5)ccc4o3)CC2)cc1", "ENDPOINT VALUE": "> 7.00"}

* * *

Target: AMPK
Assay: AMPK activation, enzyme-linked immunosorbent assay
Type: biochemical
Settings: Table 9, compounds of Table 2
Catalogue of EC50 values
PROPERTY: EC50

{"MOLECULE": "O=C(NC1CCN(Cc2cocn2)CC1)c1ccc2[nH]c3c(c2c1)CN(Cc1ccc(C(F)(F)F)cc1)CC3 [Compound 2-54]", "EXPERIMENTAL SYSTEM": "AMPK", "ENDPOINT VALUE": "< 0.5 µM"}
{"MOLECULE": "O=C(NC1CCN(Cc2ccccc2)CC1)c1ccc2[nH]c3c(c2c1)CN(S(=O)(=O)c1ccc(C(F)(F)F)cc1)CC3 [Compound 2-19]", "EXPERIMENTAL SYSTEM": "AMPK", "ENDPOINT VALUE": "> 100 µM"}
{"MOLECULE": "N#Cc1ccc(CN2CCC(NC(=O)c3ccc4[nH]c5c(c4c3)CN(Cc3ccc(F)cc3)CC5)CC2)cc1 [Compound 2-9]", "EXPERIMENTAL SYSTEM": "AMPK", "ENDPOINT VALUE": "< 0.5 µM"}
{"MOLECULE": "CC(C)(C)OC(=O)N1CCC(NC(=O)c2ccc3[nH]c4c(c3c2)CN(c2ccc(F)cc2)CC4)CC1 [Compound 2-38]", "EXPERIMENTAL SYSTEM": "AMPK", "ENDPOINT VALUE": "10 to 50 µM"}
{"MOLECULE": "NC(=O)c1ccc(CN2CCc3[nH]c4ccc(C(=O)NC5CCN(Cc6ccncc6)CC5)cc4c3C2)cc1 [Compound 2-45]", "EXPERIMENTAL SYSTEM": "AMPK", "ENDPOINT VALUE": "> 100 µM"}
{"MOLECULE": "O=C(NC1CCN(Cc2ccc(C(F)(F)F)cc2)CC1)c1ccc2[nH]c3c(c2c1)CN(Cc1ccc(C(F)(F)F)cc1)CC3 [Compound 2-13]", "EXPERIMENTAL SYSTEM": "AMPK", "ENDPOINT VALUE": "< 0.5 µM"}
{"MOLECULE": "CC(C)(C)OC(=O)N1CCC(NC(=O)c2ccc3[nH]c4c(c3c2)CN(C(=O)OCc2ccccc2)CC4)CC1 [Compound 2-3]", "EXPERIMENTAL SYSTEM": "AMPK", "ENDPOINT VALUE": "10 to 50 µM"}
{"MOLECULE": "N#Cc1ccc(S(=O)(=O)N2CCC(NC(=O)c3ccc4[nH]c5c(c4c3)CN(Cc3ccc(C(F)(F)F)cc3)CC5)CC2)cc1 [Compound 2-21]", "EXPERIMENTAL SYSTEM": "AMPK", "ENDPOINT VALUE": "0.5 to 1 µM"}
{"MOLECULE": "O=C(NC1CCN(S(=O)(=O)c2ccc(Cl)cc2)CC1)c1ccc2[nH]c3c(c2c1)CN(Cc1ccc(C(F)(F)F)cc1)CC3 [Compound 2-32]", "EXPERIMENTAL SYSTEM": "AMPK", "ENDPOINT VALUE": "1 to 5 µM"}
{"MOLECULE": "O=C(NC1CCN(C(=O)Nc2ccc(C(F)(F)F)cc2)CC1)c1ccc2[nH]c3c(c2c1)CN(Cc1ccc(C(F)(F)F)cc1)CC3 [Compound 2-33]", "EXPERIMENTAL SYSTEM": "AMPK", "ENDPOINT VALUE": "1 to 5 µM"}
{"MOLECULE": "O=C(NC1CCN(C(=O)c2ccc(F)cc2)CC1)c1ccc2[nH]c3c(c2c1)CN(c1ccc(F)cc1)CC3 [Compound 2-39]", "EXPERIMENTAL SYSTEM": "AMPK", "ENDPOINT VALUE": "10 to 50 µM"}
